For each record, write down the corresponding TGI.
tested on: SK-MEL-5 melanoma; test: NCI tumour cell line growth inhibition, 48 h
Answers are plain numbers, in µM.

Molecule	TGI / µM
O=C1C(c2ccccc2)=C(c2ccccc2)C1(Cl)Cl	8.03
CCCCCCCCCCCC(=O)N(CCCCCCCCC)CC(O)C(O)C(OC1OC(CO)C(O)C(O)C1O)C(O)CO (centres undefined)	35

Now consider the entry below.
q: Recorded TGI of CC(=O)C1=C(C)N(Cc2ccccc2)C2(O)C=CC(=O)C3=C(O)c4ccccc4C(=O)C312 (centres undefined) , please.
a: 12.5

---

test system: HCT-15 colon; experiment: NCI tumour cell line growth inhibition, 48 h
Measured Endpoint: TGI

Compound	TGI
O=C1Sc2ccccc2C(=O)N2CCSC12 (stereo not drawn)	> 100 µM
NC1(c2cc3ccccc3s2)CCCCCC1	36.9 µM

Next up:
q: Entry under review: O=C(CSc1nc2ccc(I)cc2c(=O)n1Cc1ccccc1)Nc1ccccc1 . Reported TGI?
a: > 100 µM
